Reported A3 GlyR (fold increase) values follow for various molecules
# study-target: human α3 GlyR (Homo sapiens)
# Construct: expressed in transfected cells
# Sequence (O75311 34-464): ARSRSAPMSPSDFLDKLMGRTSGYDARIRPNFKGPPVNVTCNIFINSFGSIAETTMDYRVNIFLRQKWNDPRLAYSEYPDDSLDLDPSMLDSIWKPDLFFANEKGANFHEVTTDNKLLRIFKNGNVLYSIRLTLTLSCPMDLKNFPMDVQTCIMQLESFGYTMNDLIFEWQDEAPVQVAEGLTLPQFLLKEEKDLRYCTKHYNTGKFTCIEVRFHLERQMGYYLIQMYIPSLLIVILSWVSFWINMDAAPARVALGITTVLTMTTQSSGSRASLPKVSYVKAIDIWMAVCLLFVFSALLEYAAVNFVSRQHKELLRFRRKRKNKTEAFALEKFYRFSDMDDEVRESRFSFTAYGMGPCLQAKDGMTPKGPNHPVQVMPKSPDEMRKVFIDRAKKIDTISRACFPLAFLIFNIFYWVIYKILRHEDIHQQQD
# test-details: Whole-cell patch clamp, modulation of α3 GlyR-regulated ion channel currents
# Type: cell-based
# experimental-parameters: HEK293 cells stably expressing human α3 GlyR; EC2 glycine (80 μM); holding potential −40 mV; room temperature
parameter-measured: A3 GlyR (fold increase) (fold)

> print(dat)
                                   molecule                  study.target  unit.text  number
1  C=C(C)C1CCC(C)=CC1c1ccc(C(C)(C)CCC)cc1O (stereo not drawn)  human α3 GlyR (Homo sapiens)       fold      10
2  CCCCCCC(C)(C)c1ccc2c(c1)OC(C)(C)C1CCC(C)=CC21 (stereo not drawn)  human α3 GlyR (Homo sapiens)       fold       4
3  C=C(C)[C@@H]1CCC(C)=C[C@H]1c1ccc(CCCCC)cc1O [desoxy-CBD, dehydroxylcannabidiol]  human α3 GlyR (Homo sapiens)       fold     4.6
4  C=C(C)C1CCC(C)=CC1c1ccc(C(C)C(C)CCCCC)cc1O (stereo not drawn)  human α3 GlyR (Homo sapiens)       fold      18
5  C=C(C)C1CCC(C)=CC1c1ccc(C(C)(C)CCCCCC)cc1O (stereo not drawn)  human α3 GlyR (Homo sapiens)       fold       5
6  CCCCCc1ccc2c(c1)OC(C)(C)C1CCC(C)=CC21 (stereo not drawn)  human α3 GlyR (Homo sapiens)       fold     4.7

###

The entries below are paired with their reported α1 GlyR (fold increase).
# study-target: human α1 GlyR (Homo sapiens)
# Construct: expressed in transfected cells
# Sequence (P23415 29-457): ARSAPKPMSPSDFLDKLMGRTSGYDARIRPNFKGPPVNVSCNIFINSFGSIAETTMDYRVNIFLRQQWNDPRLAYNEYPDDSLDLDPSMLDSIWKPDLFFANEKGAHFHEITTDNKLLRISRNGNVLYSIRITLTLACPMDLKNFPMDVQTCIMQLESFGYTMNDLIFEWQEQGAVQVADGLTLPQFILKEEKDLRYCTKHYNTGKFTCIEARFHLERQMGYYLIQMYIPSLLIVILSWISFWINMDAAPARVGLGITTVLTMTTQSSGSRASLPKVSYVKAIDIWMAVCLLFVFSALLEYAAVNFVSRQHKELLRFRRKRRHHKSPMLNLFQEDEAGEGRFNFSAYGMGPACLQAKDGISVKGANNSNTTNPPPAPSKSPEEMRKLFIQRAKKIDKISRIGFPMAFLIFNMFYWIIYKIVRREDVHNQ
# test-details: Whole-cell patch clamp, modulation of α1 GlyR-regulated ion channel currents
# Type: cell-based
# experimental-parameters: HEK293 cells stably expressing human α1 GlyR; EC2 glycine (1 μM); holding potential −40 mV; room temperature
parameter-measured: α1 GlyR (fold increase) (fold)

> print(dat)
                                   compound       parameter.measured  number
1  CCCCCCC(C)(C)c1ccc2c(c1)OC(C)(C)C1CCC(C)=CC21 (stereo not drawn)  α1 GlyR (fold increase)     4.2
2  C=C(C)C1CCC(C)=CC1c1ccc(C(C)(C)CCCCCC)cc1O (stereo not drawn)  α1 GlyR (fold increase)      13
3  CCCCCc1ccc2c(c1)OC(C)(C)C1CCC(C)=CC21 (stereo not drawn)  α1 GlyR (fold increase)    11.2
4  C=C(C)C1CCC(C)=CC1c1ccc(C(C)(C)CCC)cc1O (stereo not drawn)  α1 GlyR (fold increase)       4
5  C=C(C)[C@@H]1CCC(C)=C[C@H]1c1ccc(CCCCC)cc1O [desoxy-CBD, dehydroxylcannabidiol]  α1 GlyR (fold increase)    26.7

Data provenance: patent US20210009549A1
